quantity-kind: melting point

Worked set:
compound	melting point
COc1ccc(-c2nn(Cc3ccccc3)c(=O)c3ccccc23)c(OC)c1OC	144 to 145 °C
CCc1nc2c(N)nc3ccccc3c2n1CCS(C)(=O)=O	222 to 225 °C
CC(C)CNC(=O)[C@H]1C[C@@H](S(=O)(=O)c2ccc([N+](=O)[O-])cc2)[C@@H](c2ccccc2F)N1 (racemic)	218 °C
CN1c2nnnn2-c2ccc(C(O)(c3ccc(Cl)cc3)c3cncn3C)cc2C1c1cccc(Cl)c1 (configuration not stated)	235 °C
CCOC(=O)[C@H](C)N[P@@]1(=O)OC[C@H]2O[C@@H](n3cnc4c(OCC)nc(N)nc43)[C@](C)(F)[C@@H]2O1	195 to 197 °C
O=C(NO)[C@H]1CN(c2ccc(N3CCOCC3)c(F)c2)C(=O)O1	141 to 143 °C

Moving on to the next compound.
Please give the measured melting point for this compound: O=C1NN(C(=O)c2cc3ccccc3[nH]2)C(c2ccccc2)C1c1ccccc1 (configuration not stated)
248 to 250 °C

----------
A collection of molecules and their measured melting point

Previously resolved entries follow.
molecule	melting point
CC(C)(CO)NS(=O)(=O)c1cccc(NC(=O)c2cnn3c(C(F)(F)F)cc(-c4ccc(C(F)(F)F)cc4)nc23)c1	227 °C
CCN(CC)CCCNc1ncc2cc(-c3c(Cl)cccc3Cl)c(N=CN(C)C)nc2n1	100 to 104 °C

Given the entry COC(=O)c1cccc(CCN(C)CCCC(C(=O)OC)(c2ccc(OC)c(OC)c2)C(C)C)c1 (centres undefined) , report its measured melting point.
87 to 90 °C

Need melting point of NS(=O)(=O)c1ccc(-n2cnc3c(-c4ccc(C(F)(F)F)cc4F)ncnc32)cc1 , thanks.
244 to 245 °C

Data request, read-out melting point, for Nc1c(Cl)cc(C(=O)O)c2c1CCO2
258 °C

Can you share its melting point? I mean this molecule: O=c1ccoc(C(O)c2ccccc2F)c1OCc1ccccc1 (centres undefined)
116 °C

melting point for O=C1N(Cc2cnc(Cl)s2)c2ccccc2C12COc1cc3c(cc12)OCO3 (centres undefined) ?
195 to 198 °C

Return reported melting point; argument: COc1cc(Oc2cccc(OC(F)(F)F)c2)nc(C(=O)Nc2ccccc2)c1
95 to 98 °C

Quick one: melting point of COc1ccc(Cl)c2c1C(=O)OC2=O ?
192 to 193 °C

----------
Listed here are molecules together with their documented melting point.

In the examples that follow, each entry is paired with its recorded melting point.
molecule	melting point
CC(C)(c1ccccc1)c1ccc(N)c(S(=O)(=O)O)c1	263 to 265 °C
CCCc1c(OCCCCc2ccc3c(Cl)c(OC)c(OC)c(Cl)c3c2)ccc(C(=O)O)c1O	181 to 182 °C

Sample O=c1c(Cl)c(Cl)cnn1C1OCCCC1Cl (centres undefined) — what was its melting point?
109 to 110 °C

Any idea what its melting point is? The molecule is CC(O)(CCN)c1ccc(-c2ccc(F)cc2)cc1 (centres undefined)
144 to 146 °C

----------
# melting point per record follows

Before answering, review these 2 worked examples.
CNC(=O)c1cccc(NC(=O)CCc2ccccc2)c1 142 to 143 °C
Cc1nc(N)nc(N)c1N1CCN(c2ccc(C#N)cc2)CC1 > 300 °C

Would you kindly look at the next entry?
What value of melting point has been reported for the following molecule? OCc1ccc(-c2cccc(-c3cn([C@H]4CN5CCC4CC5)nn3)c2)s1
176 °C

----------
quantity-kind: melting point

molecule	result
COc1ccc(C2=CCN(CCCN3c4cccc5cccc(c45)S3(=O)=O)CC2)cc1	178 °C
O=C(O)CC1CCC2(CC1)OOC1(O2)C2CC3CC(C2)CC1C3 (stereo not drawn)	146 to 148 °C

Can you look up the measured melting point of Cc1ccc(-c2c(O)nc(S)nc2O)cc1 for me?
290 to 292 °C

----------
Here the recorded melting point is given for each entry.

Consider the reported melting point for these molecules:
molecule	melting point
CCOC(=O)CNCc1c(N)ccc(Cl)c1Cl	56 to 60 °C
O=C1c2ccccc2OCC1Br (stereo unspecified)	48 to 51 °C
Cc1cccc(NC(=O)NCC(=O)N(CC(=O)N(C)c2ccc(F)cc2)c2ccccc2)c1	135 °C
Nc1cc([N+](=O)[O-])ccc1OC(F)(F)F	90 to 91 °C
CN(C)C(=O)C1Cc2c([nH]c3ccccc23)C(c2ccc3c(c2)OCO3)N1C(=O)C=Cc1ccccc1 (stereo unspecified)	175 to 178 °C

Value lookup for melting point; key = NC(=S)N1CCc2cccnc21
173 °C

----------
quantity-kind: melting point

Which melting point value belongs to CC(=Cc1ccccc1)c1ccc2c(c1)C(C)(C)CC(O)C2(C)C (stereo unspecified) ?
102 to 103 °C

Record request: melting point value, item COc1c(CC#N)cccc1CC#N
58 to 59.5 °C

Given the entry CN(C)c1ccc(N(c2ccccc2)C2(c3ccc(N(C)C)cc3)OC(=O)c3cc(N(C)C)ccc32)cc1 (stereo unspecified) , report its measured melting point.
163 to 164 °C

Name the recorded melting point for CC(=O)NCc1ccc2c(Cl)cn(C3CCN(CCc4ccc(F)cc4)CC3)c2c1 .
101 to 102 °C

Query (compound): COc1cc(-n2c(=O)cc(C(F)(F)F)n(N)c2=O)ccc1C#N ; field requested: melting point
> 230 °C

Give its melting point value. Item: CCCCCOc1ccc2c(c1)C=C(CNC(=O)CCC)CO2
90 °C

Which melting point is reported for this compound? C=CC(c1ccccc1)c1cc(C)c2c(c1O)C(=O)CC2 (stereo unspecified)
131 to 132 °C

----------
Known melting point of a selection of compounds

// known answers, use as guide
compound	result
CC(=NOCCOc1ccc(CC2OC(=O)N(C(c3ccccc3)(c3ccccc3)c3ccccc3)C2=O)cc1)c1ccc(-c2ccccc2)cc1 (configuration not stated)	193 to 195 °C
COc1c(Cc2ccccc2)ccc2ccccc12	56 to 59 °C
Cc1nsc(OCC(F)(F)F)c1S(=O)(=O)NC(C)(C)C	87 to 90 °C
O=Cc1c2ccccc2c(CO)c2ccccc12	182 to 184 °C
CN(C)C=C1CN=C(c2ccccc2Cl)c2cc(Cl)ccc2C1=O	170 to 171 °C
Cc1cc(=O)n(-c2cc(C(=O)O)c(Cl)cc2F)c(=O)n1C(F)F	247 to 248 °C

Using the record for CC(=O)SCC(C)C(=O)N(CC(=O)O)C1CCC1 (configuration not stated) , report its melting point.
162 to 164 °C

What measured melting point goes with CC(=O)c1ccsc1C(=O)O ?
155 to 156 °C

Requested read-out: melting point. Entry: O=C1Nc2ccccc2Nc2ccccc21
121 to 123 °C

----------
Catalogue of melting point readings, one per entry.

molecule	melting point
CCCCCCCCCCCCCCCCCCS(=O)(=O)c1cc2ccccc2c(N=Nc2ccc(OC)cc2)c1O	117 to 119 °C
CCC1(Cl)C(=O)c2c(cc(OCC(=O)O)c(Cl)c2Cl)C1C (stereo not given)	208 to 210 °C
O=c1[nH]c2sc3c(Cl)cccc3c2[nH]c1=O	> 300 °C
CC(=NO)C12CCCC(C1)C1CCC2C1 (stereo not given)	157 to 158 °C
CCCCCCc1ccc(-c2ccc(COC(c3ccccc3)(c3ccccc3)c3ccccc3)cc2[N+](=O)[O-])cc1	86 to 87 °C

Return reported melting point; argument: CCOC(=O)c1cnn(-c2ccc(Cl)cc2)c1C
55 to 56 °C

Bench note: what melting point did CC(C)(C)c1ccc(C(NC(=O)c2c(F)cccc2Cl)N2CCOCC2)cc1 (stereo not given) show?
180 to 181 °C

I would be grateful if you could share the reported melting point for C/C(=C\c1ccc(Cc2cccnc2)cc1)C(=O)Oc1ccccc1 .
52 to 53 °C

// lookup melting point for C#CCn1c(=O)sc2cc(F)c(-n3c(=O)cc(C)n(C)c3=O)cc21
180 to 181 °C

Bench note: what melting point did Cc1ccccc1NC(=NC#N)NC(NC(=O)Cc1ccc(Cl)cc1)C(C)(C)C (stereo not given) show?
181 to 182 °C

So what does the record say about melting point for Cc1ccc(S(=O)(=O)N2[C@@H](CCO)CC[C@H]2c2ccc(F)cc2)cc1 (racemic) ?
129 °C

What melting point value was documented for this molecule, CC(=O)c1ccc(OCCCCCCOc2ccccc2)o1 ?
80 °C

Endpoint output: melting point of O=C1CCC(C(=O)O)(c2cccc3ccccc23)CC1 . Value?
174 to 177 °C

Data request, read-out melting point, for Nc1cccc(C(=O)N(CCN2CCC(C(=O)c3ccc(F)cc3)CC2)c2ccc(F)cc2)c1
159 to 162 °C

Please report the recorded melting point for C=Cc1ncn(-c2c(Cl)cc(C(F)(F)F)cc2Cl)n1 .
97 to 99 °C

What does the data say about its melting point? Entry: COc1cc2c(c(Cl)c1Cl)C(=O)C(CCCCl)(CCC(C)=O)C2 (stereo not given)
120 to 122 °C

Look at this molecule and give its reported melting point. CCC(=CC(CNC(=O)c1cccnc1)=NO)C(C(C)C)[N+](=O)[O-] (stereo not given)
141 to 142 °C
